Source: ChEMBL document CHEMBL1157539

Recorded measurements of Inhibition, one per entry
Tested on: Plasmodium falciparum
Experiment: GSK_TCMDC: Inhibition of Plasmodium falciparum 3D7 in whole red blood cells, using parasite LDH activity as an index of growth. Test compounds present at 2uM
Type: functional
MEASUREMENT_TYPE: Inhibition

>>> assay_result("Cc1nnsc1C(=O)Nc1ccc(-c2ccc(-c3nc4cccc(C)c4[nH]3)s2)cc1")
"100%"
>>> assay_result("CCCOc1cc(OCCC)cc(-c2cc(=O)c3ccccc3[nH]2)c1")
"99%"
>>> assay_result("Cc1cccc2nc(-c3ccc(-c4cccc(NC(=O)C(C)CN(C)C)c4)cc3)[nH]c12 (centres undefined)")
"99%"
>>> assay_result("Cl.N#Cc1ccc2c(c1)CCN(CCC1CCC(NC(=O)/C=C/c3ccc4[nH]ccc4c3)CC1)CC2 (centres undefined)")
"93%"
>>> assay_result("CC(O)C1CCCCN1C(=O)c1ccc(-c2cccc(-c3nc4cc(F)ccc4[nH]3)c2)cc1 (centres undefined)")
"100%"
>>> assay_result("COc1ccc2c(NN=Cc3cccc(Cl)c3)ccnc2c1")
"100%"
>>> assay_result("COc1ccc(CN2CCC(CNC(C)c3cccc4ccccc34)CC2)cc1.O=C(O)C(F)(F)F (centres undefined)")
"100%"
>>> assay_result("O=C([C@H]1CCCCN1c1ccc([N+](=O)[O-])c2ccccc12)N1CCN(c2ncccn2)CC1")
"97%"
>>> assay_result("CNC(=O)c1ccccc1Nc1cc(Nc2cc(OC)ccn2)ncc1Cl.O=CO")
"100%"

====

Listing of recorded Inhibition by entry.
Test system: Plasmodium falciparum
Test: GSK_TCMDC: Inhibition of Plasmodium falciparum Dd2 in whole red blood cells, using parasite LDH activity as an index of growth. Test compounds present at 2uM
Assay type: functional
MEASUREMENT_TYPE: Inhibition (%)

>>> assay_result("COC(=O)c1ccc2c(c1)nc(Nc1cccc(F)c1)n2CC(O)c1ccccn1 (stereo not given)")
96
>>> assay_result("O=C(Nc1ccc(Cn2nc(Cl)c(N3CCCNCC3)cc2=O)cc1)c1ccc(-c2ccccc2)cc1.O=C(O)C(F)(F)F")
35
>>> assay_result("CC(C)(C)c1ccc(S(=O)(=O)Nc2ccccc2N2CCOCC2)cc1")
60
>>> assay_result("CCOc1ccccc1CNc1nccc(NCCc2cn(C)c3ccccc23)n1")
62
>>> assay_result("CCN(Cc1cccc2ccccc12)c1ccc2nc(N)nc(N)c2c1.Cl")
100
>>> assay_result("Cc1sc(NC(=O)Cc2cccc(C(F)(F)F)c2)nc1-c1cccc(Cl)c1")
95
>>> assay_result("Cc1[nH]c(C)c(-c2ccc(-c3ccc(C#N)cc3)nc2)c(=O)c1Br")
87
>>> assay_result("CC(=O)c1cccc2cc(C(=O)NC3CCC(CCN4CCc5ccc(C#N)cc5C4)CC3)[nH]c12.Cl (stereo not given)")
17
>>> assay_result("CCCOc1cc(NC(=O)Nc2ccnc3ccccc23)cc(OCCC)c1.Cl")
98
>>> assay_result("CCOc1ccc2c(=NN=Cc3ccc(F)cc3)cc(C)[nH]c2c1")
99

====

Test system: HepG2
Test: GSK_TCMDC: Percent inhibition of human HepG2 cell line. Test compounds present at 10uM.
Assay type: functional
MEASUREMENT_TYPE: Inhibition (%)

>>> assay_result("O=C(/C=C/c1ccc(Cl)c(Cl)c1)NC1CCN(Cc2ccc(O)cc2)CC1.O=C(O)C(F)(F)F")
0
>>> assay_result("O=C(Nc1cccc(CN2CCCN(Cc3cccnc3)CC2)c1)c1cc2ccccc2s1.O=C(O)C(F)(F)F")
15
>>> assay_result("O=C(Nc1ccc(-c2ccc(-c3nc4ccccc4[nH]3)s2)cc1)Nc1ccc(F)c(F)c1F")
57
>>> assay_result("O=C(O)C(F)(F)F.c1cc(CN2CCN(c3ccncc3)CC2)cc(-c2ccc(-c3nc4ccccc4[nH]3)s2)c1")
59
